Tested on: Septoria tritici
Assay text: In vivo preventive test on Septoria tritici (wheat)
Settings: preventive spray, 500 ppm of active ingredient, grading 24 days after contamination
Recorded Efficacy values for a group of compounds are listed next.
Reply with the number and its unit after it.

1. C[Si](C)(CN(C(=O)c1cccnc1C(F)F)C1CC1)c1ccc(F)cc1Cl [Example 45] :: 80%
2. C[Si](C)(CN(C(=O)c1cccnc1C(F)(F)F)C1CC1)c1ccccc1F [Example 15] :: 71%
3. C[Si](C)(CN(C(=O)c1cccnc1C(F)F)C1CC1)c1ccccc1 [Example 5] :: 80%

Efficacy reading for C[Si](C)(CNC(=O)c1cccnc1C(F)(F)F)c1ccccc1 [Example 2] : 100%

Efficacy reading for C[Si](C)(CN(C(=O)c1cccnc1C(F)F)C1CC1)c1cc(F)ccc1Cl [Example 51] : 100%

These entries and their values trace back to patent US9617286B2.
